molecular target: Orphanin FQ receptor (OFQR) (Rattus norvegicus, UniProt P35370); construct: expressed in transfected cells; host or cells: Cos-7; experiment: Inhibition of [^125I] Y14-OFQ17 binding / specific OFQ binding in Cos-7 cells transfected with normal OFQR gene; conditions: Cos-7 cells transfected with OFQR gene; read-out: IC50, concentration dependent inhibition of [^125I] Y14-OFQ17 binding
Sequence (P35370 whole entry): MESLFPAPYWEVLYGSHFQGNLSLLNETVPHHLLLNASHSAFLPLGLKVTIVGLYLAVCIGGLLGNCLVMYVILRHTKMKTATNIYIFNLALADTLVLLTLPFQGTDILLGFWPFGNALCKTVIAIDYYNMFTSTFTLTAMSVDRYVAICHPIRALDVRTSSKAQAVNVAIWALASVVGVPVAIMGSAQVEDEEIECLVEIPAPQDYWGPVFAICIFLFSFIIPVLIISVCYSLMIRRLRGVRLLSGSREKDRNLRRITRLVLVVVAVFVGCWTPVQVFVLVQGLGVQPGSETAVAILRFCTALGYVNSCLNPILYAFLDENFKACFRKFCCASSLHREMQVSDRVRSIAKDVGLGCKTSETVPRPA
No end group written: not given here.
Measured pIC50, listed per entry for reference.
pIC50 here is simply -log10 of the concentration when that concentration is written in mol/L.

| Input Sequence | Reported Result |
| --- | --- |
| FGGFTGARKSARCLANQ [K13C] | 10.00 |
| FGGFTGAKKSARKLANQ [R8K] | 10.00 |

Then there is this sequence:
(Q) Item FGGFTGARKSA [OFQ11] has what recorded pIC50?
(A) 5.30
